B1: TPR 5TU (parent)
chain: GGAUCUUCUCGAUCUAACAAAAAAGACAAAUCUGCCACAAAGCUUGAGAGCAUCUUCGGAUGCAGAGGCGGCAGCCUUCGGUGGCGCGAUAGCGCCAACGUUCUCAACUAUGACACGCAAAACGCGUGCUCCGUUGAAUGGAGUUUAUCAUG

Variants of: B1
Assay: polymerase ribozyme fitness, log enrichment relative to wild type (log ratio); higher = more active; in vitro selection for triplet polymerase activity
This sample holds only a part of the variants without activity.
OUTCOME MEASURE: polymerase ribozyme fitness (log ratio)

- C27G U55A: -3.74
- A26U C118U: -0.616
- A49G G62U C63U C96A A122U: -3.19
- C54U A91G G128U C131U: -3.53
- U55G G65A A97U U130C: -1.27
- A22C C85U: -0.656
- U6G A22U A40G C57A G94A: -2.43
- U6A U146G A150G G152A: -1.38
- G62C: -1.07
- A12C G59A G84A C118U A121G A122C G126U: -3.86
- A26G C95U C96U: -4.16
- G59U G86A C118G: -2.48
- A24U U55A: -0.466
- A22U C76G C87G U101G G140C: -4.19
- U6C C38A G59U C69A: -2.2
- A21U G86A: -0.555
- C93A A138U: -4.18
- A12G C14G A97U: -2.49
- U9A C93A: -3.87
- C76U C87A: -3.85
- A52C A98U: -0.983
- A19U A40G U101G: -3.45
- U33A C95U: -4.12

src = the RNAGym collection of RNA variant scans (doi:10.1073/pnas.2313332121)
